Consider the following compounds; for each one, report its pIC50.
Test system: HCV Replicon (HCV IRES driven luciferase reporter) in Huh-Luc-Neo cells
protocol_notes: HCV Replicon Luciferase Assay
measurement_setup: Hepatitis C virus, 48 h, read-out: Luciferase IC50
Scale for pIC50: -log10 of concentration given in mol/L; no unit attached.

pIC50 for CC(=O)c1ccc(-c2c(-c3ccccc3C(F)(F)F)oc3c(C#Cc4ccccc4Cl)cc(CO)cc23)cc1 ? 4.91

pIC50 for CC(=O)c1ccc(-c2c(-c3ccccc3Cl)oc3c(C#Cc4ccccc4Cl)cc(CO)cc23)cc1 ? 5.29
